Listed here: items and their measured growth inhibition.
Assay: NCI Yeast Anticancer Drug Screen. Data for the cln2 rad14 strain (AID 165);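 further: 0% = growth equal to vehicle treated cultures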
Details: S. cerevisiae cln2 rad14 strain, at 50.0 µM, active compounds read high
Compounds without any hit were thinned out: in the full panel of roughly 79,000, 15% have a hit.
measure-name: growth inhibition (%)

compound="COC(=O)C1(CCSc2ccccc2)CCCC1=O (stereo unspecified)" measure_unit=% obs_value=5.05
compound=c1ccc2n[nH]nc2c1 measure_unit=% obs_value=2.2
compound=CCCC1(CCC)NC(=O)N(CC(N)=O)C1=O measure_unit=% obs_value=-20.6
compound=CCOC(=S)SCc1cc(C(C)(C)C)c(O)c(C(C)(C)C)c1 measure_unit=% obs_value=-20.2
compound=O=c1c2cccnc2cc(-c2ccccc2)n1CCO measure_unit=% obs_value=4.55
compound="CCOC(=O)C(C)N1CCCCCC1 (stereo unspecified)" measure_unit=% obs_value=-28.5
compound="O=C(O)C1Cc2nc[nH]c2CN1CO (stereo unspecified)" measure_unit=% obs_value=3.95
compound="CC1(C)C2CCC1(C)C(NC(N)=O)C2 (stereo unspecified)" measure_unit=% obs_value=-6.6
compound="CC1CCCCC12OCCO2 (stereo unspecified)" measure_unit=% obs_value=1.75
compound=COc1cc(C=C2N=C(c3ccccc3)N(n3c(-c4ccccc4)nc4ccccc4c3=O)C2=O)cc(OC)c1OC measure_unit=% obs_value=7.85
compound=C/C(=N\NC(=S)N(C)C)c1nc2ncccc2[nH]1 measure_unit=% obs_value=-1.5
compound=Cc1cc(C(C)C)c(C)cc1C(C)C measure_unit=% obs_value=-7
compound=O=C(CCCl)OC1CCCC1 measure_unit=% obs_value=-30.4
compound=Cc1n[nH]c(=S)n1NC=O measure_unit=% obs_value=-20.2
compound="O=C(O)C(Cc1c[nH]c2ccccc12)N1C(=O)c2ccccc2C1=O (stereo unspecified)" measure_unit=% obs_value=-12.3
compound=CCC(=C(c1ccc(OCc2ccccc2)cc1)c1ccc(OCc2ccccc2)cc1)c1ccc(OC)cc1 measure_unit=% obs_value=-0.3
compound=COc1cc(C(=O)O)cc(OC)c1OC(C)=O measure_unit=% obs_value=9
compound=N#CCCn1cnc2c(Cl)ncnc21 measure_unit=% obs_value=-12.7
compound="Nc1ncnc2c1[nH]c(=S)n2C1OC(CO)C(O)C1O (stereo unspecified)" measure_unit=% obs_value=-12.1
compound=O=C(Nc1cc(Br)c2cccc3c2c1CC3)c1ccccc1 measure_unit=% obs_value=-5.25
compound=C1=C(c2ccccc2)c2ccccc2CC1 measure_unit=% obs_value=-3.45
